EXPERIMENTAL SYSTEM: T1, 5-Helix (HIV-1 group M subtype B, HXB2 (gp41 …, stabilised))
T1 construct: also called designed protein based on HIV-1 gp41
MEASUREMENT NOTES: ELISA
CONDITIONS USED: one partner purified
METRIC: phage ELISA signal OD450 (OD450)
Lab book: enter the figure in OD450, no units written.

Summary for this binder, 25C12 bivalent scFv on phage (scFv, V domains shown) VH: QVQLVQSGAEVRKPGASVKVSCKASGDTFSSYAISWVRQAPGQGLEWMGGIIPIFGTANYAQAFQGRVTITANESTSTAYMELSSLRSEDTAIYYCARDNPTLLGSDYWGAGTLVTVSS VL: DIQMTQSPSTLSASIGDRVTITCRASEDISSVLAWYQQKPGKAPKLLIYNASRLASGAPSRFSGSGSGTDFTLTISSLQPDDFATYYCQQRANNPHTFGGGTKLEIK : phage ELISA signal OD450 is 2.2
